# Target desc: EGF-R (Homo sapiens)
# Sequence (P00533 25-1210): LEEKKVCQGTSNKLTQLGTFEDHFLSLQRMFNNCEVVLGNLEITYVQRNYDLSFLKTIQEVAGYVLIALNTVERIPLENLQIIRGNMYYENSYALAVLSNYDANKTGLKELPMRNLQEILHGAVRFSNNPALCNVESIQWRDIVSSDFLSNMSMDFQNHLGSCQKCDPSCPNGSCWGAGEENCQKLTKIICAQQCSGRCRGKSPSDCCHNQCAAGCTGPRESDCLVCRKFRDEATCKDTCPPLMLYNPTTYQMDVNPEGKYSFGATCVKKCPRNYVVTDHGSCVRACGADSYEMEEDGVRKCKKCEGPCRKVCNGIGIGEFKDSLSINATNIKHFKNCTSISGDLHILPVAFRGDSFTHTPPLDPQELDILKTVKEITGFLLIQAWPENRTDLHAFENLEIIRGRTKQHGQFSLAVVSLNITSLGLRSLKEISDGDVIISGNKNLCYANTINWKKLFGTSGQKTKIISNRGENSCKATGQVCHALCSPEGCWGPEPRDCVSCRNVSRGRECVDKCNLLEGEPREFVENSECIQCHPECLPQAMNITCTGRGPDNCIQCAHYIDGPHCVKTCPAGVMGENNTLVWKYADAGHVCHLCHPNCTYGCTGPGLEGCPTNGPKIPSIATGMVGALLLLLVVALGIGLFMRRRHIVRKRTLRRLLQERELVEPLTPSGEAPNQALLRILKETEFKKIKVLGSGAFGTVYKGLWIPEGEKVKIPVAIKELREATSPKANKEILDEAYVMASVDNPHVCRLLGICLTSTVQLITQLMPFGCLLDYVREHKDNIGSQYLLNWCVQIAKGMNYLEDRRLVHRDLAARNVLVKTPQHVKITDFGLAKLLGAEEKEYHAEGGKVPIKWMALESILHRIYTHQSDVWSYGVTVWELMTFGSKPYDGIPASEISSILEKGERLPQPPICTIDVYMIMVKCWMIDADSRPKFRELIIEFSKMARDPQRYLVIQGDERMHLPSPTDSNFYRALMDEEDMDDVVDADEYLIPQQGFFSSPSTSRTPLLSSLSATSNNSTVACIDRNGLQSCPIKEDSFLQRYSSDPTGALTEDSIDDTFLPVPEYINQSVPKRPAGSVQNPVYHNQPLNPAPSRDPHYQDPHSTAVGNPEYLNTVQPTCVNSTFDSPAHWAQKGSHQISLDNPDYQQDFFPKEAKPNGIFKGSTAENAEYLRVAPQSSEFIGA
pIC50: −log10 of the molar value.
Measurement kind: pIC50

Inquiry: // fetch pIC50; item: O=C1CCCc2cc(-c3ccnc(Nc4ccccc4)n3)ccc2N1 [Compound 2a] ; system: EGF-R (Homo sapiens)
Reply text: < 4.00

---

# Target desc: SRC (Homo sapiens, UniProt P12931)
# Sequence (P12931 whole entry): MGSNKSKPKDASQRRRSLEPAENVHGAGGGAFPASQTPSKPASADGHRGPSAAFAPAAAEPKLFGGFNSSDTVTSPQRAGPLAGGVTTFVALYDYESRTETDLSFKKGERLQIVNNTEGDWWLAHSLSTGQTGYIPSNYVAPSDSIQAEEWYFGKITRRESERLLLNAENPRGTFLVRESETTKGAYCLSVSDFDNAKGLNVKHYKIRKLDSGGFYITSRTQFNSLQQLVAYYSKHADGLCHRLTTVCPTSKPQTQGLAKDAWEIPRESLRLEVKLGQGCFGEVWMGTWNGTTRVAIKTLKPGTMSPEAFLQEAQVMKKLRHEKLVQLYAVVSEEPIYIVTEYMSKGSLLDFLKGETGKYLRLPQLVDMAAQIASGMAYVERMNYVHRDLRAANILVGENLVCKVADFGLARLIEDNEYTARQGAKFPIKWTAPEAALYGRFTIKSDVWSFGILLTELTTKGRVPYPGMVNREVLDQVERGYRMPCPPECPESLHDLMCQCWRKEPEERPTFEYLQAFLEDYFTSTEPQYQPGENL
Measurement kind: pIC50
Schema: pIC50 number; meaning minus log10 of the concentration expressed in molar units.

Inquiry: Provide only the value of recorded pIC50 for O=C1CCCc2cc(-c3ccnc(Nc4ccccc4)n3)ccc2N1
Reply text: 4.13

---

# Target desc: CDK2/CycA (Homo sapiens)
# Test method notes: radiometric 33PanQinase protein kinase assay
# Condition description: 1 µM ATP
Measurement kind: pIC50
Schema: pIC50 number; meaning minus log10 of the concentration expressed in molar units.

Inquiry: Provide only the value of recorded pIC50 for O=C1CCCc2cc(-c3ccnc(Nc4ccccc4)n3)ccc2N1
Reply text: 4.22
